Test: NCI Yeast Anticancer Drug Screen. Data for the cln2 rad14 strain (AID 165);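 also: 0% = growth equal to vehicle treated cultures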
Conditions: S. cerevisiae cln2 rad14 strain, at 50.0 µM, hits give high values
Compounds without any hit were thinned out: in the full panel of roughly 79,000, 15% have a hit.
Record true whenever growth inhibition is at -10% or higher; record false when lower.

Known results for compounds:
COMPOUND | ASSIGNED CLASS
CC(=O)c1cccc(NC(=O)c2cccc(Cl)c2)c1 | false
Cc1ccc(S(=O)(=O)CCC(=O)c2ccccc2)cc1 | true

# ---- query compound ----
-- ask Kindly determine if growth inhibition recorded for "Cn1c(=O)c(C(=O)NC23CC4CC(CC(C4)C2)C3)c(O)c2ccccc21" is above or exactly -10%.
-- reply false

====

Assay: NCI Yeast Anticancer Drug Screen. Data for the sgs1 mgt1 strain (AID 161);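 also: 0% = growth of cultures given vehicle only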
Settings: S. cerevisiae sgs1 mgt1 strain, at 50.0 µM, hits give high values
This is part of a sample that, as a whole, favours compounds with a hit. Of some 79,000 tested, about 15% had one in any assay.
MEASURED ATTRIBUTE: growth inhibition (%)
One number for each entry, in %.

COMPOUND | QUANTITY UNIT | growth inhibition
COc1c(NC(=O)CC(C)=O)cccc1NC(=O)CC(C)=O | % | -2.05
Cc1ccc(-c2nc(SCc3ccc(Cl)cc3)[nH]c(=O)c2CCO)cc1 | % | 38.8
Cc1cccc(/C=N\N=C\c2cccc(C)n2)n1 | % | -3.25
CCOC(=O)/C(C#N)=C/N=c1ccccn1C | % | -1.3
C#CC1(O)c2ccccc2C(=O)c2ccccc21 | % | -7.65

Please look at the items below and tell me growth inhibition for each one, in order.
1. COc1ccc(/C(=N\NC(=O)C(=O)NN)C(c2ccc(OC)cc2)C2(O)C(=O)Nc3ccccc32)cc1 (stereo unspecified)
2. CCCCC(C(=O)O)C(C)CC (stereo unspecified)
3. CCCCOC(=O)c1ccc(NC(=O)Nc2ccc(SC)cc2)cc1
4. C/C(=N/NC(=O)c1ccccc1O)c1ccc(/C(C)=N\NC(=O)c2ccccc2O)c2nc3cc(C)c(C)cc3nc12
5. O=C1c2ccccc2CCC12OC2c1ccncc1 (stereo unspecified)

-- reply
-22.6
18.8
19.2
-31.4
25

-- ask Query: growth inhibition; subject: "NC(=O)Cc1cc2c(cc1CO)OCO2"
-- reply 2.45

====

For each record, write down the corresponding growth inhibition.
Experiment: NCI Yeast Anticancer Drug Screen. Data for the mlh1 rad18 strain (AID 175)
Settings: S. cerevisiae mlh1 rad18 strain growth inhibition; at 50.0 µM; hits give high values
About 79,000 compounds went through this panel and 15% of them were active in at least one assay; those are over-represented in the sample as a whole.
Give bare numbers, in %.

MOLECULE | QUANTITY UNIT | growth inhibition
NC(=O)C(N)C(N)=NCc1ccccc1 (stereo not given) | % | 13.5

Items follow; give growth inhibition for each.
1. O=C(Cc1ccccc1)Nc1ccc([N+](=O)[O-])cc1Cl
2. CCOC(=O)c1cc2ccccc2oc1=O
3. CN(C)c1nc(Cl)nc2nc(Cl)[nH]c12
4. CCN(CC)C(COC(=O)Nc1ccccc1)COC(=O)Nc1ccccc1
5. COc1ccc(C(O)C2c3c(cc4c(c3OC)OCO4)CCN2C)c(CO)c1OC (stereo not given)
6. COC(=O)N1N=C(c2ccccc2)C(C(=O)OC)(C(=O)OC)c2ccccc21
7. CCOC(=O)CCCCCSc1n[nH]c(=O)[nH]c1=O
8. Cc1cccc(NC(=O)c2c(Cl)c(Cl)c(Cl)c(Cl)c2C(=O)O)c1C

-- reply
1. 38.1
2. 3.9
3. 11.9
4. 3.05
5. 7.45
6. 36.8
7. -4.2
8. 8.95

# batch size: 7; output growth inhibition per entry
1. CCOC(=O)Oc1ccc(Cl)cc1Cl
2. CC1(C)OC(=O)N=C1c1ccc(F)cc1
3. CCOC(=O)C(CC(c1ccc2c(c1)OCO2)C(C(=O)N(C(C)C)C(C)C)[N+](=O)[O-])C(=O)OCC (stereo not given)
4. CC(=O)Oc1ccc2c(c1)C(=O)CCCCCC(=O)O2
5. O=N/C(=C(\c1ccccc1)N1CCOCC1)c1ccccc1
6. NC(=O)NC(=O)/C=C/C(=O)O
7. O=C(O)CCCC[P+](c1ccccc1)(c1ccccc1)c1ccccc1

-- reply
[-3.8, 17.4, 26.4, -10.8, 6.45, -3.2, 27.8]

====

Experiment: NCI Yeast Anticancer Drug Screen. Data for the mlh1 rad18 strain (AID 175)
Conditions: S. cerevisiae mlh1 rad18 strain growth inhibition; at 50.0 µM; hits give high values
Compounds without any hit were thinned out: in the full panel of roughly 79,000, 15% have a hit.
Task for the reader: assign each of the following molecules its reported growth inhibition.
One number for each entry, in %.

Field: example entries. Status: answers known.
MOLECULE | ASSAY VALUE
Nc1cccc(/C=C/c2cccc([N+](=O)[O-])c2)c1 | 30.2
CNCCC(C(=O)O)c1ccccc1 (stereo not given) | 9.1
O=C1NC(N2CCCC(CO)C2)=N/C1=C\c1ccccc1 (stereo not given) | -33.7
CCOC(=O)c1ccc2c(c1)Cc1c-2cc(Br)c(N)c1Br | 47
O=C(O)C1CC2CC(=O)C1C2 (stereo not given) | 9
CC(C)(C)OC(=O)CN1C(=O)CCC1=O | -5.15
CC(=O)Nc1ccc(OCCCc2ccccc2)c([N+](=O)[O-])c1 | -2.65
COC(=O)c1cc(C(=O)c2ccccc2)cc2c1c(=O)[nH]c1ccccc12 | 6.75

For every item below, please supply its growth inhibition.
1. CC1c2[nH]c3ccccc3c2CC1C(=O)O (stereo not given)
2. COc1ccc(C)cc1CC(=O)O
3. COc1cc(C[C@H]2C(=O)OCC2Cc2ccc(OC)c(OC)c2)ccc1O (stereo not given in full)
4. OCc1ccc(F)cc1CO
5. Cc1cccc(NC(=O)c2c(Br)c(Br)c(Br)c(Br)c2C(=O)O)c1C

-- reply
1: -5.35; 2: -9.2; 3: -22.3; 4: 11.9; 5: -4.3

I need growth inhibition for every entry listed below, if you could help.
1. C=CC(C)C(C)C (stereo not given)
2. CCCCC(O)(CCC)CCCC
3. CCCCCCCCCCCCCCCCCC(=O)OCC(COC1OC(CS(=O)(=O)O)C(O)C(O)C1O)OC(=O)CCCCCCCCCCCCCCCCC (stereo not given)
4. C1=CC2CCC1C1CSCC21 (stereo not given)

-- reply
-4.8
2.55
19.6
-12.7

Give me growth inhibition for each of these molecules, listed below.
1. CC(=O)ONc1nc(C)c(CCC2OCCO2)c(SC(=N)N)n1
2. CCCCS(=O)(=O)Cc1ccccc1
3. Cc1ccc(N2C(=O)/C(=C/c3ccc(N(CCC#N)CCC#N)cc3C)N=C2c2cc([N+](=O)[O-])ccc2Cl)cc1
4. COc1cc2cnc(-c3ccncc3)c(N)c2cc1OC
5. COC(=O)c1nc2c(N)nc(-c3ccccc3)nc2nc1N
6. S=C(Nc1ccc2c(c1)Cc1ccccc1-2)Nc1ccc2c(c1)Cc1ccccc1-2

-- reply
[38.2, -17.4, 19.9, 7.65, -1.95, 31]

Go through the list and state growth inhibition for each entry.
1. Oc1c(Cl)c(Cl)c(O)c2ccccc12
2. CCn1c(=NC(=O)c2ccccc2O)sc2ccccc21

-- reply
[-52.9, -3.05]

====

Assay: NCI Yeast Anticancer Drug Screen. Data for the mec2-1 strain (AID 157)
Conditions: S. cerevisiae mec2-1 strain, at 50.0 µM, hits give high values
This is part of a sample that, as a whole, favours compounds with a hit. Of some 79,000 tested, about 15% had one in any assay.
MEASURED ATTRIBUTE: growth inhibition (%)
Numbers only, in %.

MOLECULE | QUANTITY UNIT | ASSAY VALUE
Cc1nccc2scc(S(=O)(=O)O)c12 | % | 10.5
CN(C)c1ccccc1C(=O)NNC(=S)Nc1ccccc1 | % | -1.75

For every item in the list below, what is its measured growth inhibition?
1. CC(C)NC(=O)c1ccccc1-[s+]1c2ccccc2c(=O)n1C(C)C (configuration not stated)
2. O=C(O)CCS(=O)(=O)CCC(=O)O
3. O=C(Oc1ccc[nH]c1=O)C1CC1
4. NCCOCC(N)C(=O)O (configuration not stated)

-- reply
[1.15, 0.8, 7.45, -14.4]

-- ask Need growth inhibition, item CCCCCC(CSCC)C(=O)/C=C/c1ccccc1 (configuration not stated)
-- reply 1.4

====

Assignment: determine reported growth inhibition for the given molecules.
Test: NCI Yeast Anticancer Drug Screen. Data for the bub3 strain (AID 167)
Conditions: S. cerevisiae bub3 mutant strain, at 50.0 µM, hits give high values
The panel holds about 79,000 compounds, 15% with a hit somewhere; the sample as a whole holds those more often.
One number for each entry, in %.

Solved entries:
MOLECULE | QUANTITY UNIT | growth inhibition
Nc1cc(Cl)c(N)c(Cl)c1 | % | -19.4
CNC(=O)Sc1ccc(C)c([N+](C)(C)C)c1 | % | 18.1
Nc1nc(Sc2ccc([N+](=O)[O-])c3nonc23)c2ncn(C3OC(CO)C(O)C3O)c2n1 (stereo unspecified) | % | -6.3
O=C(O)CC(/C=C\C(=O)C(=O)O)=C\O | % | 4.15
Brc1cc(Br)c(-c2c(Br)cc(Br)cc2Br)c(Br)c1 | % | -7.5

-- ask Sample "c1ccc(-c2cccc(-c3ccccc3)n2)cc1" — what was its growth inhibition?
-- reply -24.3
